Reference for the values: patent US20190248900A1

SYSTEM NAME: T1, M3
T1 construct: also called PD1 mutant M3
ASSAY NOTES: scFv-phage ELISA
ENDPOINT NAME: OD490
Give bare numbers.

- BINDER: "PD1-49B9 (antibody, V domains shown, scFv-phage in the screening ELISA; later whole IgG) VH: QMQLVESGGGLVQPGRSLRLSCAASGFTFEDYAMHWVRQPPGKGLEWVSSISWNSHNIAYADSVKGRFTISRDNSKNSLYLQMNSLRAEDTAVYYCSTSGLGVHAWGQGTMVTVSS VL: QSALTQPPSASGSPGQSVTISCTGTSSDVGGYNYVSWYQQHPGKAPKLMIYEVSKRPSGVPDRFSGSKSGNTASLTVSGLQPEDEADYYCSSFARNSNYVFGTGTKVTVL"
  ENDPOINT NAME: "OD490"
  READOUT NUMBER: 3.9

Moving on to the next binder.
Asked: Quick one: OD490 for PD1-42G4 (antibody, V domains shown, scFv-phage in the screening ELISA; later whole IgG) VH: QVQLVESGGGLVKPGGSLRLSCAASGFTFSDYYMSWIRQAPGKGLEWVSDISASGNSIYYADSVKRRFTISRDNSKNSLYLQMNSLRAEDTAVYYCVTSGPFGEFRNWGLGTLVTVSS VL: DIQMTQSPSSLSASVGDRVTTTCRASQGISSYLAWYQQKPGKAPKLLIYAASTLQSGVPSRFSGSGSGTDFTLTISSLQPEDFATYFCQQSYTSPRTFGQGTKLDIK ?
Given back: 2
